Data credit: PubChem BioAssay (NCI)

Tested on: U251 CNS
Test: NCI tumour cell line growth inhibition, 48 h
RESULT TYPE: TGI

Request: Sample O=C(NC1C2CC3CC(C2)CC1C3)/C(Cl)=C1/Sc2ccccc2NC1=O (stereo not drawn) — what was its TGI?
Response: > 100 µM

Request: Sample CN(CC(=O)O)Cc1oc(CO)cc(=O)c1O — what was its TGI?
Response: > 100 µM

Request: Sample Cc1ccc(C2=C(c3ccc(C)cc3)C(c3ccc(C)cc3)=C(c3ccc(C)cc3)C2=O)cc1 — what was its TGI?
Response: > 100 µM

Request: Sample CN(C)CCSCCO — what was its TGI?
Response: > 100 µM

Request: Sample Cn1cnc2c(F)c(Nc3ccc(Br)cc3F)c(C(=O)NOCCO)cc21 — what was its TGI?
Response: > 100 µM

Request: Sample CC(C)C[C@H](NC(=O)CCn1ccc2ncccc2c1=O)B(O)O — what was its TGI?
Response: > 100 µM

Request: Sample CCN(CC)CCOc1ccc(C(O)(Cc2ccc(OC)cc2)c2ccccc2)cc1 (stereo not drawn) — what was its TGI?
Response: 35.5 µM

Request: Sample O=C1CS[C@@](CC(c2ccc(Cl)cc2)c2ccc(Cl)cc2)(c2ccc(Cl)cc2)N1 — what was its TGI?
Response: 63.1 µM

Request: Sample Nc1c(C(=O)N/N=C/c2ccc(-c3cc(Cl)c(Cl)cc3Cl)o2)cnn1-c1ccnc2c(C(F)(F)F)cccc12 — what was its TGI?
Response: > 100 µM

Request: Sample COc1c2ccsc2c(OC)c2ccsc12 — what was its TGI?
Response: > 100 µM

Request: Sample CN[C@@H](C)[C@@H](O)c1ccccc1 — what was its TGI?
Response: > 100 µM

Request: Sample CC12CCC(C(=Nc3cc(C(F)(F)F)cc(C(F)(F)F)c3)C1=O)C2(C)C (stereo not drawn) — what was its TGI?
Response: > 100 µM

Request: Sample CCOC(=O)C(=O)CC(=O)C1=C(c2ccccc2OC)CC(c2cccs2)=CC1=O — what was its TGI?
Response: > 100 µM
